# System: brains, heart, liver, muscle, and DRG of the NHPs
# Assay remarks: Maturation of TTM-001 and TTM-002 capsids, NGS enrichment in NHP tissues
# Assay type: in vivo
# Protocol conditions: NGS fold-enrichment; liver DNA; NHP; relative to AAV9
For each of the sequences below, state its Fold Enrichment relative to AAV9, Liver DNA (NHP).
Give the number; fold is assumed, so skip it.

Value lookup for Fold Enrichment relative to AAV9, Liver DNA (NHP); key = `KTINGSGSPHSYYSNQQT`
2.856

Value lookup for Fold Enrichment relative to AAV9, Liver DNA (NHP); key = `KTINGSGSPHFPFQNQQT`
3.715

Value lookup for Fold Enrichment relative to AAV9, Liver DNA (NHP); key = `KTINGSGSPHSKAQFCLT`
3.371

Value lookup for Fold Enrichment relative to AAV9, Liver DNA (NHP); key = `KTINGSGSPHSKCTSQQT`
5.821

Value lookup for Fold Enrichment relative to AAV9, Liver DNA (NHP); key = `KTINGSGSPHGRYQNQQT`
0.778

###

# System: brains, heart, liver, muscle, and DRG of the NHPs
# Assay remarks: Maturation of TTM-001 and TTM-002 capsids, NGS enrichment in NHP tissues
# Assay type: in vivo
# Protocol conditions: NHP brain; NGS; relative to AAV9 control
Quantity name: Fold Enrichment relative to AAV9, Brain (NHP)

Value lookup for Fold Enrichment relative to AAV9, Brain (NHP); key = `KTINGSGSPHSPPDNQQT`
0.000 fold

Value lookup for Fold Enrichment relative to AAV9, Brain (NHP); key = KTINGSSSPHWMAQNQQT (peptide inserted in AAV capsid)
0.000 fold

Value lookup for Fold Enrichment relative to AAV9, Brain (NHP); key = `KTINGSGSPHSRMRNQQT`
0.000 fold

Value lookup for Fold Enrichment relative to AAV9, Brain (NHP); key = `KTINGSGSPHSKAQTHRT`
0.000 fold

Value lookup for Fold Enrichment relative to AAV9, Brain (NHP); key = `KTINGSGSPHSFPFNQQT`
0.000 fold

Value lookup for Fold Enrichment relative to AAV9, Brain (NHP); key = `KTINLGCSPHSKAQNQQT`
0.000 fold

Value lookup for Fold Enrichment relative to AAV9, Brain (NHP); key = `KPRFGSGSPHSKAQNQQT`
0.000 fold

Value lookup for Fold Enrichment relative to AAV9, Brain (NHP); key = `KFFHGSGSPHSKAQNQQT`
0.000 fold

Value lookup for Fold Enrichment relative to AAV9, Brain (NHP); key = `KTINGSGSPHSKAHARQT`
0.000 fold

Value lookup for Fold Enrichment relative to AAV9, Brain (NHP); key = `KTINGSGSPHPFVQNQQT`
0.000 fold

Value lookup for Fold Enrichment relative to AAV9, Brain (NHP); key = `KTINGSGSPHSKAFYRQT`
0.000 fold

Value lookup for Fold Enrichment relative to AAV9, Brain (NHP); key = `KTINGSGSPHSKIRGQQT`
0.000 fold

Value lookup for Fold Enrichment relative to AAV9, Brain (NHP); key = `KTINGSGSPHSKWGLQQT`
0.000 fold

Value lookup for Fold Enrichment relative to AAV9, Brain (NHP); key = `KTINGSGSPHSKAQSRKT`
0.000 fold

Value lookup for Fold Enrichment relative to AAV9, Brain (NHP); key = KYSAGSGSPHSKAQNQQT (peptide inserted in AAV capsid)
0.000 fold

###

# Test system: brain
# Assay remarks: NGS fold enrichment of synthetic library (passage 3) in C57Bl/6 mice, first cross-species screen
# Type: in vivo
# Protocol conditions: synthetic library passage 3, intravenous, RNA NGS, brain of C57Bl/6 mice, relative to wild-type AAV9
For each of the sequences below, state its Fold enrichment over AAV9 in the brain of Mice (C57Bl/6).
Give the number; fold is assumed, so skip it.

Value lookup for Fold enrichment over AAV9 in the brain of Mice (C57Bl/6); key = `GAVGHSYSGQNQQT`
0.306

Value lookup for Fold enrichment over AAV9 in the brain of Mice (C57Bl/6); key = `GSGYSMSQAQNQQT`
0.519

Value lookup for Fold enrichment over AAV9 in the brain of Mice (C57Bl/6); key = `GRAVMDHSGQNQQT`
0.728

Value lookup for Fold enrichment over AAV9 in the brain of Mice (C57Bl/6); key = `GSGQNQQTPLRPPT`
0.874

Value lookup for Fold enrichment over AAV9 in the brain of Mice (C57Bl/6); key = `GNVTTQKSGQNQQT`
1.215

Value lookup for Fold enrichment over AAV9 in the brain of Mice (C57Bl/6); key = `GSGQSFQMHTNQQT`
0.503

Value lookup for Fold enrichment over AAV9 in the brain of Mice (C57Bl/6); key = `GLRLSTPSGQNQQT`
0.804

Value lookup for Fold enrichment over AAV9 in the brain of Mice (C57Bl/6); key = `GSLPRGTSDQNQQT`
0.453

Value lookup for Fold enrichment over AAV9 in the brain of Mice (C57Bl/6); key = `GSGQTVVRIANQQT`
0.661

###

# Tested on: brain
# Assay remarks: NGS fold enrichment of synthetic library (passage 3) in BALB/c mice, first cross-species screen
# Type: in vivo
# Protocol conditions: synthetic library passage 3, intravenous, RNA from brain of BALB/c mice, NGS, relative to wild-type AAV9
For each of the sequences below, state its Fold enrichment over AAV9 in the brain of Mice (BALB/c).
Give the number; fold is assumed, so skip it.

Value lookup for Fold enrichment over AAV9 in the brain of Mice (BALB/c); key = `GSGQNQQPSAFSKT`
0.754

Value lookup for Fold enrichment over AAV9 in the brain of Mice (BALB/c); key = `GSGQNQQQRDGTLT`
0.730

Value lookup for Fold enrichment over AAV9 in the brain of Mice (BALB/c); key = `GTTAHQPSGQNQQT`
0.275

Value lookup for Fold enrichment over AAV9 in the brain of Mice (BALB/c); key = `GSQSTLGLGQNQQT`
0.400

Value lookup for Fold enrichment over AAV9 in the brain of Mice (BALB/c); key = `GSGHPYKAAQNQQT`
0.507

Value lookup for Fold enrichment over AAV9 in the brain of Mice (BALB/c); key = `GSGQNQQKSLNGNT`
0.851

Value lookup for Fold enrichment over AAV9 in the brain of Mice (BALB/c); key = `GSGQLVSGLYNQQT`
0.733

Value lookup for Fold enrichment over AAV9 in the brain of Mice (BALB/c); key = `GSGQNQQSHGRIGT`
0.455

Value lookup for Fold enrichment over AAV9 in the brain of Mice (BALB/c); key = `GSGQNQQNLGKLNT`
0.687

Value lookup for Fold enrichment over AAV9 in the brain of Mice (BALB/c); key = `GNSQVKVSGQNQQT`
0.728

Value lookup for Fold enrichment over AAV9 in the brain of Mice (BALB/c); key = `GSGQSTLKRINQQT`
1.184

Value lookup for Fold enrichment over AAV9 in the brain of Mice (BALB/c); key = `GSGQNQQKLSSMST`
1.052

###

# System: brains, heart, liver, muscle, and DRG of the NHPs
# Assay remarks: Maturation of TTM-001 and TTM-002 capsids, NGS enrichment in NHP tissues
# Format: in vivo
# Protocol conditions: NHP DRG; relative to AAV9 control
For each of the sequences below, state its Fold Enrichment relative to AAV9, DRG (NHP).
Give the number; fold is assumed, so skip it.

Value lookup for Fold Enrichment relative to AAV9, DRG (NHP); key = `KTINGGGSPHSKSQNRQT`
0.000

Value lookup for Fold Enrichment relative to AAV9, DRG (NHP); key = `KTINGSGSPHSKAQRMNT`
0.000

Value lookup for Fold Enrichment relative to AAV9, DRG (NHP); key = `KTIPMEGSPHSKAQNQQT`
0.000

Value lookup for Fold Enrichment relative to AAV9, DRG (NHP); key = `KTGNGSGSPHSKAQIQQT`
0.000

Value lookup for Fold Enrichment relative to AAV9, DRG (NHP); key = `KTNNGGGSPHSKAQNLQT`
0.000

Value lookup for Fold Enrichment relative to AAV9, DRG (NHP); key = `KTIPAIGSPHSKAQNQQT`
0.000

Value lookup for Fold Enrichment relative to AAV9, DRG (NHP); key = `KTELRSGSPHSKAQNQQT`
0.000

Value lookup for Fold Enrichment relative to AAV9, DRG (NHP); key = `KTLNGNGSPHSKAQNLQT`
0.668

Value lookup for Fold Enrichment relative to AAV9, DRG (NHP); key = `KTINGGGSPHSKAQNPQA`
0.000

Value lookup for Fold Enrichment relative to AAV9, DRG (NHP); key = `KTINGSGSPHSKAQREMT`
0.000

Value lookup for Fold Enrichment relative to AAV9, DRG (NHP); key = `KTEQVSGSPHSKAQNQQT`
0.000

Value lookup for Fold Enrichment relative to AAV9, DRG (NHP); key = `KTDVGSGSPHSKAQNQQT`
0.000

Value lookup for Fold Enrichment relative to AAV9, DRG (NHP); key = `KTINGSGSPHSKAQGHHT`
0.000

Value lookup for Fold Enrichment relative to AAV9, DRG (NHP); key = `KTINGSGSPHSKAQPLGT`
0.015

Value lookup for Fold Enrichment relative to AAV9, DRG (NHP); key = `KEFVGSGSPHSKAQNQQT`
0.000

Value lookup for Fold Enrichment relative to AAV9, DRG (NHP); key = `KNSLGSGSPHSKAQNQQT`
0.000

Value lookup for Fold Enrichment relative to AAV9, DRG (NHP); key = `KTVNGNGSPHSKSQNQQT`
0.000

Value lookup for Fold Enrichment relative to AAV9, DRG (NHP); key = `KTIIGSGSPHSKAQDRQT`
1.393

Value lookup for Fold Enrichment relative to AAV9, DRG (NHP); key = `KSDKGSGSPHSKAQNQQT`
0.000

Value lookup for Fold Enrichment relative to AAV9, DRG (NHP); key = `KTINGSGSPHSKAQIGHT`
0.024

Value lookup for Fold Enrichment relative to AAV9, DRG (NHP); key = `KTINGSGSPHSKAQAIHT`
0.000

Value lookup for Fold Enrichment relative to AAV9, DRG (NHP); key = `KTDVNSGSPHSKAQNQQT`
0.000

Value lookup for Fold Enrichment relative to AAV9, DRG (NHP); key = `KTINGGGSPHSKAQNQMT`
0.000

Value lookup for Fold Enrichment relative to AAV9, DRG (NHP); key = `KTSNGSGSPHSKAQNLQI`
0.000

Value lookup for Fold Enrichment relative to AAV9, DRG (NHP); key = `KTINGSGSPHSKAQRDIT`
0.098

Value lookup for Fold Enrichment relative to AAV9, DRG (NHP); key = `KTWQNSGSPHSKAQNQQT`
0.000

Value lookup for Fold Enrichment relative to AAV9, DRG (NHP); key = `KTINGSGSPHSKAQSVHT`
0.000

Value lookup for Fold Enrichment relative to AAV9, DRG (NHP); key = `KTINGGGSPHSKAQRQQT`
0.000

Value lookup for Fold Enrichment relative to AAV9, DRG (NHP); key = `KTINGSGSPHAKAQNHQT`
0.211

Value lookup for Fold Enrichment relative to AAV9, DRG (NHP); key = `KTELGSGSPHSKAQNQQT`
0.000

Value lookup for Fold Enrichment relative to AAV9, DRG (NHP); key = `KTVNGGGSPHSKAQNHQT`
0.375

Value lookup for Fold Enrichment relative to AAV9, DRG (NHP); key = `KNSIGSGSPHSKAQNQQT`
0.000

Value lookup for Fold Enrichment relative to AAV9, DRG (NHP); key = `KTINGSGSPHSKAQVRNT`
0.000

Value lookup for Fold Enrichment relative to AAV9, DRG (NHP); key = `KTINGSGSPHSKAQKIST`
0.000

Value lookup for Fold Enrichment relative to AAV9, DRG (NHP); key = `KTSNGSGSPHSKAHYQQT`
0.000

Value lookup for Fold Enrichment relative to AAV9, DRG (NHP); key = `KSDIGSGSPHSKAQNQQT`
0.000

Value lookup for Fold Enrichment relative to AAV9, DRG (NHP); key = `KTINGSGSPHSKAIGKQT`
0.000

Value lookup for Fold Enrichment relative to AAV9, DRG (NHP); key = `KTDRTSGSPHSKAQNQQT`
0.000

Entry source: patent US20260250318A1
